- Test system: ABL2
- Set-up: species or system human, MV4-11 + K-562 + COLO205 + SK-N-BE2 + OVCAR-8
- condition-summary: read-out: apparent Kd; compound concentrations:100 nM and 1000 nM (sheet 'Samples'); n = 1
Grouping key: potency estimated from few doses. Bins: lo = under 0.4 µM, med = from 0.4 µM up to 0.6 µM, hi = 0.6 µM and over

molecule	measured-target	class-assignment
Cn1cc(-c2cnc(N)c3c(-c4ccc5c(c4)CCN5C(=O)Cc4ccccc4)csc23)cn1 [GSK2593074A]	ABL2	hi
Cc1ccc2c(-c3ccncc3)c(-c3ccc(F)cc3)nn2c1.Cl [GW461484A]	ABL2	med
Cl.Cn1c(=O)c(Cc2ccc(F)cc2F)cc2cnc(NC3CCOCC3)nc21 [RO3308757-001]	ABL2	med
COc1cc2ncn(-c3cc(OCCCc4ccccc4)c(C(N)=O)s3)c2cc1OC [GSK205189A]	ABL2	hi
CC(=O)N[C@@H](Cc1ccc(OP(=O)(O)O)cc1)C(=O)N[C@H]1CCC(=O)N2CCC[C@@H](C(=O)NCc3ccc(Cl)cc3)N2C1=O [RO0325308-000]	ABL2	lo
Cl.Cl.NCC(C(=O)Nc1cc(Br)c(-c2ccnc3[nH]ccc23)s1)c1ccccc1.NCC(C(=O)Nc1cc(Br)c(-c2ccnc3[nH]ccc23)s1)c1ccccc1 (centres unmarked) [GSK1269851A]	ABL2	med
CC(C)N1CCC(n2cnc(-c3ccc(F)cc3)c2-c2ccnc(N)n2)CC1 [SB-223132]	ABL2	hi
CC(C)c1nc(-c2ccc(F)c(NS(=O)(=O)c3c(F)cccc3F)c2)c(-c2ccnc(Nc3ccc(N4CCOCC4)nc3)n2)s1 [GSK1804250A]	ABL2	lo
O=C1NC(=O)C(N2CCc3ccccc32)=C1c1ccccc1Cl [SB-373598]	ABL2	lo
CC(=O)c1c(-c2ccncc2)[nH]c(-c2ccncc2)c1C [GW493036X]	ABL2	med

====

A collection of compounds and their measured potency estimated from few doses
- System: NQO1
- Set-up: species or system human, MV4-11 + K-562 + COLO205 + SK-N-BE2 + OVCAR-8
- condition-summary: read-out: apparent Kd; compound concentrations:100 nM and 1000 nM (sheet 'Samples'); n = 1
experimental-readout: potency estimated from few doses (nM)

> print(dat)
                                   compound  measured.target              experimental.readout  reported.value
1  Fc1ccc(-c2ncn(C3CCNCC3)c2-c2ccnc(Oc3ccc4c(c3)OCO4)n2)cc1 [SB-250715]             NQO1  potency estimated from few doses            1700
2  NCC1CCC(CNc2nc(NCc3ccccc3OC(F)(F)F)ncc2[N+](=O)[O-])CC1 (stereo not shown) [BIRZ0518XX]             NQO1  potency estimated from few doses            1290
3  COc1cccc(C2=C(Nc3cccc(C(=O)O)c3)C(=O)NC2=O)c1 [SB-390770]             NQO1  potency estimated from few doses            2210
4  CCn1c(-c2nonc2N)nc2cnc(Oc3cccc(NC(=O)c4ccc(OCCN5CCOCC5)cc4)c3)cc21.Cl [GSK269962B]             NQO1  potency estimated from few doses             175
5  COc1cc2ncn(-c3cc(OCc4ccncc4)c(C(N)=O)s3)c2cc1OC [GSK336313A]             NQO1  potency estimated from few doses            1230
6  NS(=O)(=O)c1ccc(N/N=C2\C(=O)Nc3ccc(Cl)cc32)cc1 [GW280670X]             NQO1  potency estimated from few doses            1850
7  O=C(Nc1n[nH]c2nc(-c3cccc(O)c3)ccc12)C1CC1 [SB-711805]             NQO1  potency estimated from few doses            1330
